biological target: CAMKK2-KD (kinase domain of CAMKK2) (Homo sapiens, UniProt Q96RR4); construct: the protein kinase domain (amino acids 161–449); hexahistidine (6xHis), TEV-cleavable; made in house; assay: DSF thermal-shift screen, 384-well format; format: binding; conditions: 10 µM compound, 1 µM kinase, 0.1% DMSO, single measurement
quantity: ΔTm (°C)

{"input smiles": "CCOC(=O)c1cnc2ccc(-c3cncc(NS(=O)(=O)c4ccccc4)c3)cn12", "measured target": "CAMKK2-KD (kinase domain of CAMKK2) (Homo sapiens, UniProt Q96RR4)", "ΔTm (°C)": 4.2}

(A) CN(c1ncccc1CNc1nc(Nc2ccc3c(c2)CC(=O)N3)ncc1C(F)(F)F)S(C)(=O)=O
(B) CNc1nc(Nc2cnn([C@H]3CCN(C4COC4)C[C@@H]3F)c2Cl)ncc1C(F)(F)F
Exercise: Short answer wanted: higher ΔTm, A or B ? Pick one and reply with its label.
Solution: B
(B: 6.4 °C, A: 4.2 °C)

====

biological target: CAMKK2-FL (Homo sapiens)
quantity: IC50 (µM)

{"compound": "CC(C)[C@H](CO)Nc1nc(Nc2cc(N)cc(Cl)c2)c2ncn(C(C)C)c2n1 [Aminopurvalanol]", "IC50 [µM]": 0.159}
{"compound": "COC(=O)[C@@]1(O)C[C@H]2O[C@]1(C)n1c3ccccc3c3c4c(c5c6ccccc6n2c5c31)C(=O)NC4 [K252a]", "IC50 [µM]": 0.05}
{"compound": "COCCOc1ccc2c(c1)ncn2-c1ccc2cccc(N3CCC(N)CC3)c2n1 [CP-673451]", "IC50 [µM]": 0.019}

(a) COc1cc2c(Oc3ccc(NC(=O)C4(C(=O)Nc5ccc(F)cc5)CC4)cc3F)ccnc2cc1OCCCN1CCOCC1 [Foretinib]
(b) CC1(COc2ccc3c(c2)ncn3-c2ccc3cccc(N4CCC(N)CC4)c3n2)COC1 [Crenolanib (CP-868596), Crenolanib]
(c) CC[C@@H]1C(=O)N(C)c2cnc(Nc3ccc(C(=O)N[C@H]4CC[C@H](N5CCN(CC6CC6)CC5)CC4)cc3OC)nc2N1C(C)C [BI 6727, Volasertib]
Exercise: Rank descending by IC50. Form entry: ranked labels (order as requested).
Solution: a, c, b

====

target: CAMKK2-KD (kinase domain of CAMKK2) (Homo sapiens, UniProt Q96RR4); construct: the protein kinase domain (amino acids 161–449); hexahistidine (6xHis), TEV-cleavable; made in house; test: DSF thermal-shift screen, 384-well format; type: binding; conditions: 10 µM compound, 1 µM kinase, 0.1% DMSO, single measurement
quantity: ΔTm (°C)

{"input smiles": "CS(=O)(=O)c1cccc(CNc2nc(Nc3ccc4c(c3)CCC(=O)N4)ncc2C(F)(F)F)c1", "unit label": "°C", "ΔTm": 4.5}
{"input smiles": "COc1cc(C(=O)NC2CCN(C)CC2)ccc1Nc1ncc2c(n1)N(C1CCCC1)CC(F)(F)C(=O)N2C", "unit label": "°C", "ΔTm": 4.5}

(1) Cc1cc(CN2CCN(c3c(Br)cnc4nc(-c5ccc(N6CCN(C)CC6)cc5)[nH]c34)CC2)no1
(2) COc1cc(N2CCC(N)CC2)ccc1Nc1ncc(Cl)c(-c2c[nH]c3ccccc23)n1
Exercise: Could you check which of 1 and 2 has a smaller value for ΔTm? Pick one and reply with its label.
Solution: 1
(1: 4.7 °C, 2: 9.3 °C)

(1) C=CC(=O)Nc1cccc(Sc2nc(Nc3ccc(N4CCN(C)CC4)cc3)ncc2Cl)c1
(2) Cc1ccc([N+](=O)[O-])cc1S(=O)(=O)N(C)/N=C/c1cnc2ccc(Br)cn12
Exercise: Short answer wanted: higher ΔTm, 1 or 2 ? Pick one and reply with its label.
Solution: 2

Attribution: paper PMC6848146
